Tested on: DU-145 prostate
protocolNotes: NCI tumour cell line growth inhibition, 48 h
endpoint: TGI

molecule	testedTarget	measuredResult
N#Cc1c(N)nc(N2CCOCC2)c(C#N)c1-c1cccnc1	DU-145 prostate	> 100 µM

// input: 4 molecules below; output: TGI for each
1. COC(=O)C1CCC(=O)N1C(c1ccc(OC)cc1)c1ccc(OC)cc1 (stereo not given)
2. COc1ccc(/C(C#N)=C/c2ccc(OC)c(OC)c2)cc1
3. CCN(C(=O)c1cc(F)ccc1Oc1cncnc1N1CC2(CCN(CC3CCC(NS(=O)(=O)CC)CC3)CC2)C1)C(C)C (stereo not given)
4. CCNC(=O)c1cc2c(-c3cc(C(C)(C)O)ccc3Oc3c(C)cc(F)cc3C)cn(C)c(=O)c2[nH]1

a:
> 100 µM
> 100 µM
> 100 µM
18.4 µM
